biological target: CXCR4 receptor (human, UniProt P61073 1-352); experiment: cell-based or functional assay
Sequence (P61073 whole entry): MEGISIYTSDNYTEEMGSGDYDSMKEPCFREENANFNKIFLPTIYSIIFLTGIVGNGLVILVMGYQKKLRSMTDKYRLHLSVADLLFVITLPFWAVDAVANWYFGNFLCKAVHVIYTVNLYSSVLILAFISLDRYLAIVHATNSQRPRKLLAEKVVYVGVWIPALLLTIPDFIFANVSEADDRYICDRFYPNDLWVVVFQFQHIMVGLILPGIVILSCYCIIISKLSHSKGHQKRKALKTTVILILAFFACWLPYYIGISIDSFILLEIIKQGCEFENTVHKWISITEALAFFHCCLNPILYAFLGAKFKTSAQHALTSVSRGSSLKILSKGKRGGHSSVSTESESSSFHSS
Square brackets hold non-standard residues; d marks the D form. * marks the point of attachment. Palmitoyl = CCCCCCCCCCCCCCCC(=O)*
PROPERTY_MEASURED: IC50 (nM), calcium flux, CCRF-CEM
Give the value in nM but do not write nM after it.

BINDER: Palmitoyl-MGYQKALRSMTDKYRL-NH2 (SMILES CCCCCCCCCCCCCCCC(=O)N[C@@H](CCSC)C(=O)NCC(=O)N[C@@H](Cc1ccc(O)cc1)C(=O)N[C@@H](CCC(N)=O)C(=O)N[C@@H](CCCCN)C(=O)N[C@@H](C)C(=O)N[C@@H](CC(C)C)C(=O)N[C@@H](CCCNC(=N)N)C(=O)N[C@@H](CO)C(=O)N[C@@H](CCSC)C(=O)N[C@H](C(=O)N[C@@H](CC(=O)O)C(=O)N[C@@H](CCCCN)C(=O)N[C@@H](Cc1ccc(O)cc1)C(=O)N[C@@H](CCCNC(=N)N)C(=O)N[C@@H](CC(C)C)C(N)=O)[C@@H](C)O) [CXCR4 i1 loop compound 134]
UNIT_NAME: nM
IC50 (nM), calcium flux, CCRF-CEM: 250

## Input Which measured IC50 (nM), calcium flux, CCRF-CEM value corresponds to Palmitoyl-MGY[dQ]KKLRSMTDKYRL-NH2 [CXCR4 i1 loop compound 167] ?
## Output 116
